The origin of these recorded values is paper PMC5363571.

- target system: USP7 (Homo sapiens)
- Sequence (Q93009 whole entry): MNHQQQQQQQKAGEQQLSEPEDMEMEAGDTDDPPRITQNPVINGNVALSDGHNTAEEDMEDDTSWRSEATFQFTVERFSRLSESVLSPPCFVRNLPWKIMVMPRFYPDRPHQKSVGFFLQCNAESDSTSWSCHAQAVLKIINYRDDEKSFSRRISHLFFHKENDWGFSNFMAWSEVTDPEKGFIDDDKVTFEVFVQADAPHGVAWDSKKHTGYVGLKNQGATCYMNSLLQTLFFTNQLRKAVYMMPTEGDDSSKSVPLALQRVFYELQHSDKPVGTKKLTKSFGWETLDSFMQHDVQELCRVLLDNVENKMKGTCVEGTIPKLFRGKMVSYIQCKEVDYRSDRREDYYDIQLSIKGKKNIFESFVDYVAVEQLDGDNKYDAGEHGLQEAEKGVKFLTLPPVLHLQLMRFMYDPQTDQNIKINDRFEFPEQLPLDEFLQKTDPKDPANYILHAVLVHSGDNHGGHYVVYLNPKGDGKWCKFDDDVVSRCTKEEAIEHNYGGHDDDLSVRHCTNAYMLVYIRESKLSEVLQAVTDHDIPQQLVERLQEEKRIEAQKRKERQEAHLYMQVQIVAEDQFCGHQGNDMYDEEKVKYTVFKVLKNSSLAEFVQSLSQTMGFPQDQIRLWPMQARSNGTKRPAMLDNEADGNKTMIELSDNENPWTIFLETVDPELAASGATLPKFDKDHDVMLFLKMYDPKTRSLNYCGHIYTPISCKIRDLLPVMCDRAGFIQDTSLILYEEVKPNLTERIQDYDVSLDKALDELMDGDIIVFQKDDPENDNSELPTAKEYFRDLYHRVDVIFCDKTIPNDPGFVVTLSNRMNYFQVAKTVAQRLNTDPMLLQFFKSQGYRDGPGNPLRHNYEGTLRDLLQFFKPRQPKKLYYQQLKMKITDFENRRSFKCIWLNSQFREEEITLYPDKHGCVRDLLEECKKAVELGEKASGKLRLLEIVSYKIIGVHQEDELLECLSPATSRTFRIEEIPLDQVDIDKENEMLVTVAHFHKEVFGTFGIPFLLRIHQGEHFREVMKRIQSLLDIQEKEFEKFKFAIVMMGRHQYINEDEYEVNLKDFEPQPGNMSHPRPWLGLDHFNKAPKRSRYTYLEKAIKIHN
- assay comment: biochemical
- Set-up: Ub-AMC hydrolysis by recombinant USP7 (20 nM), 30 min pre-incubation, fluorescence read-out
- test parameters: read-out: % Inhibition at 50 μM
Where a name gives a salt, the structure may show the parent alone.
Catalogue of compounds with associated inhibition at 50 µM

Solved entries (count: 2):
CC(C)NCC(O)c1ccc(NS(C)(=O)=O)cc1 (stereo not drawn) [Sotalol HCl]	< 5%
CCCCc1ncc(/C=C(\Cc2cccs2)C(=O)O)n1Cc1ccc(C(=O)O)cc1	6.2%

Now for a further compound.
Q: Hi! What's the reported inhibition at 50 µM for `CCCCC[C@H](O)/C=C/[C@@H]1[C@@H](C/C=C\CCCC(=O)O)[C@@H](O)C[C@H]1O` on USP7 (Homo sapiens)?
Result: < 5%

----------
- target system: USP7 (Homo sapiens)
- assay comment: biochemical
- Design: Ub-AMC hydrolysis by recombinant USP7 (20 nM), 30 min pre-incubation, fluorescence read-out
- test parameters: read-out: % Inhibition at 50 μM
Where a name gives a salt, the structure may show the parent alone.
endpoint label: inhibition at 50 µM

CN(C)C(=O)C(CCN1CCC(O)(c2ccc(Cl)cc2)CC1)(c1ccccc1)c1ccccc1 [Loperamide]	< 5%
CCCCC[C@H](O)/C=C/[C@H]1[C@H](O)CC(=O)[C@@H]1C/C=C\CCCC(=O)O	6.5%
CC(=O)O[C@]1(C(C)=O)CC[C@H]2[C@@H]3C=C(Cl)C4=CC(=O)[C@@H]5C[C@@H]5[C@]4(C)[C@H]3CC[C@@]21C [Cyproterone acetate]	28.6%
CC(C)(C)C(=O)C(Oc1ccc(Cl)cc1)n1ccnc1 (centres unmarked)	< 5%
O=C(CCCN1CCC2(CC1)C(=O)NCN2c1ccccc1)c1ccc(F)cc1	< 5%
COC(=O)CCc1ccc(OCC(O)CNC(C)C)cc1 (centres unmarked)	< 5%
CN(C)CCCN1c2ccccc2CCc2ccccc21 [Imipramine HCl]	26.5%
CN(C)C(=N)NC(=N)N	8.6%
CC(=O)Oc1ccccc1C(=O)O	< 5%
COc1cc([C@@H]2c3cc4c(cc3[C@@H](O[C@@H]3O[C@@H]5CO[C@@H](C)O[C@H]5[C@H](O)[C@H]3O)[C@H]3COC(=O)[C@H]23)OCO4)cc(OC)c1O [Etoposide]	< 5%

Q: Record request: inhibition at 50 µM value, item O=C(c1ccc(OCCN2CCCCC2)cc1)c1c(-c2ccc(O)cc2)sc2cc(O)ccc12 [Raloxifene HCl]
Result: < 5%

Q: Record request: inhibition at 50 µM value, item `CN1C(C(=O)Nc2ccccn2)=C(O)c2ccccc2S1(=O)=O`
Result: < 5%

----------
- target system: USP7 (Homo sapiens)
- assay comment: biochemical
- Design: Ub-AMC hydrolysis by recombinant USP7 (20 nM), 30 min pre-incubation, fluorescence read-out
- test parameters: read-out: % Inhibition at 50 μM
Structures can show the parent of a compound that is named as a salt.
endpoint label: inhibition at 50 µM

Solved entries (count: 5):
CN1CCC(=C2c3ccccc3C=Cc3ccccc32)CC1 [Cyproheptadine]	< 5%
CC/C(=C(/CC)c1ccc(O)cc1)c1ccc(O)cc1 [Diethylstilbestrol]	30.6%
N[C@@H](Cc1ccc(N(CCCl)CCCl)cc1)C(=O)O [Melphalan]	< 5%
CN(Cc1ccc(C(C)(C)C)cc1)Cc1cccc2ccccc12 [Butenafine]	24.9%
NC(=O)OCC(COC(N)=O)c1ccccc1 [Felbamate]	< 5%

Q: Record request: inhibition at 50 µM value, item Cc1cccc(C)c1NC1=NCCCS1 [Xylazine HCl]
Result: < 5%

Q: Record request: inhibition at 50 µM value, item CN(C(=O)CCCOc1ccc2[nH]c(=O)ccc2c1)C1CCCCC1 [Cilostamide]
Result: < 5%

Q: Record request: inhibition at 50 µM value, item COc1ccc(C[C@H](N)C(=O)N[C@H]2[C@@H](O)[C@H](n3cnc4c(N(C)C)ncnc43)O[C@@H]2CO)cc1 [Puromycin 2HCl]
Result: < 5%

Q: Record request: inhibition at 50 µM value, item Nc1nc(N)nc(-c2cc(Cl)ccc2Cl)n1 [Irsogladine maleate]
Result: < 5%

Q: Record request: inhibition at 50 µM value, item Oc1ccc2c3c1O[C@H]1c4[nH]c5ccccc5c4C[C@@]4(O)[C@@H](C2)N(CC2CC2)CC[C@]314 [Naltrindole HCl]
Result: < 5%

Q: Record request: inhibition at 50 µM value, item CC(=O)NC[C@H]1CN(c2ccc(N3CCOCC3)c(F)c2)C(=O)O1 [Linezolid]
Result: < 5%

Q: Record request: inhibition at 50 µM value, item Cc1cnc(C(=O)NCCc2ccc(S(=O)(=O)NC(=O)NC3CCCCC3)cc2)cn1 [Glipizide]
Result: < 5%

Q: Record request: inhibition at 50 µM value, item COc1ccc(C(=O)NCc2cccnc2)cc1C(=O)NCc1cccnc1 [Picotamide]
Result: < 5%

Q: Record request: inhibition at 50 µM value, item Cn1ccnc1S [Methimazole]
Result: < 5%
